target: S. aureus Alpha hemolysin (Staphylococcus aureus); assay: cell-based; settings: A549-LDH Assay activity
Sequence (P09616 27-319 limits assumed): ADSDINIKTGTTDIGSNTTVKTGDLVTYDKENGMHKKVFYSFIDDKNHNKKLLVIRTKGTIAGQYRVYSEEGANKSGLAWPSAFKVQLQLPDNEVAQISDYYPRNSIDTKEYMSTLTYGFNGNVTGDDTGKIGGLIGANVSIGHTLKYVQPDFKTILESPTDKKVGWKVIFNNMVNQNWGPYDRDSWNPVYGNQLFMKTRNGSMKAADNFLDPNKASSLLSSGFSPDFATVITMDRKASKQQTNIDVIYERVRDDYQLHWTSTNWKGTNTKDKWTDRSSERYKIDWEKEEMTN
MEASURED ATTRIBUTE: EC50

{"COMPOUND STRUCTURE": "Cc1cc2[nH]c(=O)c(=O)[nH]c2cc1S(=O)(=O)Nc1ccc(-c2cccc(N)c2)c(Cl)c1", "TGT": "S. aureus Alpha hemolysin (Staphylococcus aureus)", "RESULT": "< 30 nM"}
{"COMPOUND STRUCTURE": "Cc1cc2[nH]c(=O)c(=O)[nH]c2cc1S(=O)(=O)Nc1cc(C)c(-c2cccc(Cl)c2)c(C)c1", "TGT": "S. aureus Alpha hemolysin (Staphylococcus aureus)", "RESULT": "30 to 100 nM"}
{"COMPOUND STRUCTURE": "Cc1cc2[nH]c(=O)c(=O)[nH]c2cc1S(=O)(=O)Nc1ccc(C(C)C)cc1", "TGT": "S. aureus Alpha hemolysin (Staphylococcus aureus)", "RESULT": "100 to 1000 nM"}

Exam item: Request: EC50, test system S. aureus Alpha hemolysin (Staphylococcus aureus), entry Cc1cc2[nH]c(=O)c(=O)[nH]c2cc1S(=O)(=O)Nc1cc(C)c(-c2ccccc2F)c(C)c1
Marked response: 30 to 100 nM

Exam item: Which measured EC50 belongs to Cc1cc2[nH]c(=O)c(=O)[nH]c2cc1S(=O)(=O)Nc1ccc(C2CC2)cc1 , tested on S. aureus Alpha hemolysin (Staphylococcus aureus)?
Marked response: < 30 nM

Exam item: Query the reported EC50 for S. aureus Alpha hemolysin (Staphylococcus aureus); item: Cc1cc2[nH]c(=O)c(=O)[nH]c2cc1S(=O)(=O)Nc1ccc(-c2cccc(S(=O)(=O)N(C)C)c2)c(Cl)c1
Marked response: 1000 to 6000 nM

Exam item: Could you share what EC50 was measured for Cc1cc2[nH]c(=O)c(=O)[nH]c2cc1S(=O)(=O)Nc1ccc(-c2cccc(OC(F)(F)F)c2)c(Cl)c1 , tested on S. aureus Alpha hemolysin (Staphylococcus aureus)?
Marked response: 100 to 1000 nM

----------
Measured pEC50 of individual entries
target: S. aureus Alpha hemolysin (Staphylococcus aureus); experiment: cell-based; conditions: A549-LDH Assay activity
pEC50: −log10 of the molar value.

Check out these entries, answers already filled in.
{"COMPOUND": "Cc1cc2[nH]c(=O)c(=O)[nH]c2cc1S(=O)(=O)Nc1cnc(-c2ccc(C#N)cc2)c(Cl)c1 [Compound 305]", "TGT": "S. aureus Alpha hemolysin (Staphylococcus aureus)", "pEC50": "7.00 to 7.52"}
{"COMPOUND": "O=c1[nH]c2cc(F)c(S(=O)(=O)Nc3ccc(-c4ccccc4F)c(Cl)c3)cc2[nH]c1=O [Compound 36]", "TGT": "S. aureus Alpha hemolysin (Staphylococcus aureus)", "pEC50": "6.00 to 7.00"}
{"COMPOUND": "Cc1cc2[nH]c(=O)c(=O)[nH]c2cc1S(=O)(=O)Nc1ccc(-c2cccc(C(C)C)c2)c(Cl)c1 [Compound 39]", "TGT": "S. aureus Alpha hemolysin (Staphylococcus aureus)", "pEC50": "5.22 to 6.00"}
{"COMPOUND": "Cc1cc2[nH]c(=O)c(=O)[nH]c2cc1S(=O)(=O)Nc1ccc(I)c(C(F)(F)F)c1 [Compound 325]", "TGT": "S. aureus Alpha hemolysin (Staphylococcus aureus)", "pEC50": "5.22 to 6.00"}
{"COMPOUND": "Cc1cc2[nH]c(=O)c(=O)[nH]c2cc1S(=O)(=O)Nc1ccc(-c2cccc(C(F)(F)F)c2)c(Cl)c1 [Compound 316]", "TGT": "S. aureus Alpha hemolysin (Staphylococcus aureus)", "pEC50": "5.22 to 6.00"}

Exam item: Form field - read-out: pEC50; system: S. aureus Alpha hemolysin (Staphylococcus aureus); submitted item: C#Cc1cc(NS(=O)(=O)c2cc3[nH]c(=O)c(=O)[nH]c3cc2C)ccc1-c1ccc2oc(C)nc2c1 [Compound 373]
Marked response: > 7.52

Exam item: Please tell me: pEC50 of Cc1cccc(-c2c(C)cc(NS(=O)(=O)c3cc4[nH]c(=O)c(=O)[nH]c4cc3C)cc2C)c1 [Compound 175] , system S. aureus Alpha hemolysin (Staphylococcus aureus)?
Marked response: 6.00 to 7.00

All figures here come from patent US20240376084A1.
